Reference for the values: ChEMBL document CHEMBL1138197

pKi: −log10 of the molar value.
These records show pKi for D(3) dopamine receptor (Homo sapiens, UniProt P35462).
measured_parameter: pKi

CN1CCc2ccccc2Cc2c(O)cccc2CC1 : 6.67
CN1CCc2ccccc2Cc2c(ccc(O)c2Cl)CC1 : 8.73
CN1CCc2ccccc2Cc2cc(O)c(Cl)cc2CC1 : 7.56
CN1CCc2cc(O)ccc2Cc2ccc(O)cc2CC1 : 6.47
CN1CCc2ccccc2Cc2cc(O)ccc2CC1 : 6.53

P. COc1cccc2c1Cc1ccccc1CCN(C)CC2
Q. COc1ccc2c(c1)CCN(C)CCc1ccccc1C2
Prompt: Among P and Q , which shows a numerically higher pKi result? Respond using the label that marks the chosen record.
Completion: Q
